STUDY TARGET: aryl hydrocarbon receptor (AHR) (Homo sapiens, UniProt P35869)
Construct: HepG2 cells transiently transfected with the pGudLuc8.1 plasmid were thawed and 25,000 cells were plated per well; endogenous in cells; host or cells: HepG2
Sequence (P35869 11-848): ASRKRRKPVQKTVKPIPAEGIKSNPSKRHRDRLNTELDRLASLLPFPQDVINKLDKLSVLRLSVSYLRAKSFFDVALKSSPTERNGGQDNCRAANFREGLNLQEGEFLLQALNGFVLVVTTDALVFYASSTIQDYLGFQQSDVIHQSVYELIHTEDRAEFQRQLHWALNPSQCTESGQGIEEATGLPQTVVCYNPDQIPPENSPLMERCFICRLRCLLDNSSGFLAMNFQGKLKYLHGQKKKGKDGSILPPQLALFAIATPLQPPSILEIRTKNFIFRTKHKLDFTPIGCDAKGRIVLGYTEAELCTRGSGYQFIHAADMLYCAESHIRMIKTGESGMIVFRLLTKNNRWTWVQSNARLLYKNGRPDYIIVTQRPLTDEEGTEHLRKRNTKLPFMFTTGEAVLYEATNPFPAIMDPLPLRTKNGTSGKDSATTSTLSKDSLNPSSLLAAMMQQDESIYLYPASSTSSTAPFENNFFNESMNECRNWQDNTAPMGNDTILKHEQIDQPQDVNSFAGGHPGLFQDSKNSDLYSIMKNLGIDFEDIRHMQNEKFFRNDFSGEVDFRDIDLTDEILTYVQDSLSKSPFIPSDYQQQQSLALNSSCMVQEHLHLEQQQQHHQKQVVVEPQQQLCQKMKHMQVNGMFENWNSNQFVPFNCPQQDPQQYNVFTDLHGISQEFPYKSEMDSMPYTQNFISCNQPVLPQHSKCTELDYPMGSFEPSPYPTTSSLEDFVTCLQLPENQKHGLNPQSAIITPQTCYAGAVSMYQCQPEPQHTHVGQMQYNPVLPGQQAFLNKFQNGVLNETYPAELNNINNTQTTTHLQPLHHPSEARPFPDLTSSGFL
METHOD: AHR antagonist assay: luciferase reporter in HepG2 cells transiently transfected with pGudLuc8.1
Assay type: cell-based
TEST PARAMETERS: AHR agonist VAF347 fixed at 40 nM; HepG2 cells, 25,000 cells per well; luciferase activity 24 hours post-culture; read-out: AHR Antagonist Activity in the Presence of VAF347 EC50
QUANTITY KIND: pEC50
Give only the number. pEC50 is defined as minus log10 of concentration in molar units.

Answer with reported pEC50 of CC(C)n1cnc2c(NCCc3ccc(O)cc3)nc(-c3csc4ccccc34)nc21 [SR1] 6.71

* * *

STUDY TARGET: aryl hydrocarbon receptor (AHR) (Homo sapiens)
Construct: HepG2 cells transiently transfected with the pGudLuc8.1 plasmid were thawed and 25,000 cells were plated per well; endogenous in cells; host or cells: HepG2
METHOD: AHR antagonist assay: luciferase reporter in HepG2 cells transiently transfected with pGudLuc8.1
Format: cell-based
TEST PARAMETERS: without VAF347; HepG2 cells, 25,000 cells per well; luciferase activity 24 hours post-culture; read-out: Endogenous AHR Antagonist Activity EC50
QUANTITY KIND: EC50 (nM)
Quick reminder: number only, in nM, skip the unit.

Tell me its EC50 given `CC(C)n1cnc2c(NCCc3ccc(O)cc3)nc(-c3csc4ccccc34)nc21` as the entry. 33
